- target: purified catalytic domain of recombinant human TACE (rhTACEc) (Homo sapiens, UniProt P78536, N452Q/S266A)
- Construct: Residue 215 to 477 with two mutation (S266A and N452Q) and a 6×His tail; 6xHis (C); made in house; host or cells: baculovirus/Hi5 insect cells
- Sequence (P78536 215-477 S266A/N452Q): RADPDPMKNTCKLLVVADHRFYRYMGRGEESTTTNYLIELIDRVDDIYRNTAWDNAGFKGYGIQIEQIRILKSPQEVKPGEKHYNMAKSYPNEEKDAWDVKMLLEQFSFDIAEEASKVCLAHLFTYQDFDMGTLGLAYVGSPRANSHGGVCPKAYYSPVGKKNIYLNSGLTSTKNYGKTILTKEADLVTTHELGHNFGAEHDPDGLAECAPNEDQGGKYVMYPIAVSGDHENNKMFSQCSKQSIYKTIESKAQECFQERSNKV
- methodNotes: TACE kinetic assay: cleavage of internally quenched peptide substrate SPDL-3, fluorescence
- Assay type: biochemical
- experimentalSetup: TACE, representative compounds, numeric values; read-out: Ki
Reported log10(Ki) values for a set of compounds
assayMetric: log10(Ki) (log10 of the value in nM)

compound	log10(Ki)
CC(C)Nc1nc([C@@H]2c3ccc(Cl)cc3CCN2C(=O)[C@H](O)[C@@H](O)C(=O)N[C@H](C)c2ccc(-n3cccn3)cc2)cs1 [drawing 1324]	0.52
C[C@@H](NC(=O)[C@H](O)[C@@H](O)C(=O)N1CCc2ccccc2[C@@H]1c1csc(N)n1)c1ccc(-n2cccn2)cc1 [drawing 1309]	0.04
CC#CCOc1cc([C@@H](C)NC(=O)[C@](C)(O)[C@@H](O)C(=O)N2Cc3cccnc3C2)ccc1-n1cccn1 [drawing 1313]	0.16
CNc1nc([C@H]2C=CCN2C(=O)[C@H](O)[C@@H](O)C(=O)N[C@H](C)c2ccc(-n3cccn3)cc2)cs1 [drawing 1300]	-0.24
CNc1nc([C@H]2c3ccccc3CCN2C(=O)[C@H](O)[C@@H](O)C(=O)N[C@H](C)c2ccc(-n3cccn3)cc2)cs1 [drawing 1310]	0.15
COc1cc2c(cc1OC)C(c1ccccc1)N(C(=O)[C@H](O)[C@@H](O)C(=O)N[C@H](C)c1ccc(-n3cccn3)cc1)CC2 (some centres unmarked) [drawing 1306]	-0.07
CNc1nc([C@H]2CCCN2C(=O)[C@H](O)[C@@H](O)C(=O)N[C@H](C)c2ccc(-n3cccn3)cc2)c(S(C)(=O)=O)s1 [drawing 1294]	-0.42
CNc1nc([C@H]2CC(F)(F)CN2C(=O)[C@H](O)[C@@H](O)C(=O)N[C@H](C)c2ccc(-n3cccn3)cc2)cs1 [drawing 1327]	0.59
CC#CCOc1cc([C@@H](C)NC(=O)[C@H](O)[C@@H](O)C(=O)N2CCC[C@@H]2c2csc(NC(C)C)n2)ccc1-n1cccn1	0.46
CNc1nc([C@H]2C[C@H]3C[C@H]3N2C(=O)[C@H](O)[C@@H](O)C(=O)N[C@H](C)c2ccc(-n3cccn3)cc2)cs1 [drawing 1312]	0.15
O=C(NCc1ccn(Cc2ccccc2Cl)n1)[C@H](O)[C@@H](O)C(=O)N1CCC[C@@H]1c1cccc(Cl)c1	0.43
C[C@@H](NC(=O)[C@H](O)[C@@H](O)C(=O)N1CC=CC1c1cccc(Cl)c1)c1ccc(-n2cccn2)cc1 (some centres unmarked)	-0.22
CNc1nc([C@H]2CCCN2C(=O)[C@H](O)[C@@H](O)C(=O)N[C@H](C)c2ccc(-n3cccn3)cc2)c(C#N)s1 [drawing 1316]	0.30
CCNc1nc(C2c3ccccc3CN2C(=O)[C@H](O)[C@@H](O)C(=O)N[C@H](C)c2ccc(-n3cccn3)cc2)cs1 (some centres unmarked)	-0.80
C[C@@H](NC(=O)[C@H](O)[C@@H](O)C(=O)N1CCC[C@@H]1c1ccn(-c2ccc(F)cc2)n1)c1ccc(-n2cccn2)cc1 [drawing 1317]	0.30
CC#CCOc1cc([C@@H](C)NC(=O)[C@H](O)[C@@H](O)C(=O)N2CC=CC2c2cccc(Cl)c2)ccc1-n1cccn1 (some centres unmarked) [drawing 1314]	0.19
CCNc1nc([C@@H]2c3ccccc3CN2C(=O)[C@H](O)[C@@H](O)C(=O)N[C@H](C)c2ccc(-n3cccn3)cc2)cs1 [drawing 1307]	-0.05
C[C@@H](NC(=O)[C@H](O)[C@@H](O)C(=O)N1CCc2ccc(F)cc2C1)c1ccc(-n2cccn2)cc1 [drawing 1323]	0.48
CCOC(=O)c1ccccc1-c1ccc(CNC(=O)[C@H](O)[C@@H](O)C(=O)N2CCC[C@@H]2c2ccccc2)cc1	0.56
CC#CCOc1cc([C@@H](C)NC(=O)[C@H](O)[C@@H](O)C(=O)N2Cc3cccnc3C2)ccc1-n1cccn1 [drawing 1292]	-0.60
C[C@@H](NC(=O)[C@H](O)[C@@H](O)C(=O)N1CC=C[C@@H]1c1cccc(Cl)c1)c1ccc(-n2cccn2)cc1 [drawing 1295]	-0.31
C[C@@H](NC(=O)[C@H](O)[C@@H](O)C(=O)N1CCC[C@@H]1c1ccn(-c2ccccc2)n1)c1ccc(-n2cccn2)cc1 [drawing 1318]	0.36
CCNc1nc(C2c3ccccc3CCN2C(=O)[C@H](O)[C@@H](O)C(=O)N[C@H](C)c2ccc(-n3cccn3)cc2)cs1 (some centres unmarked)	-0.52
Cc1nc2ccccc2n1Cc1csc(CNC(=O)[C@H](O)[C@@H](O)C(=O)N2CCCC2c2cccc(N(C)C)c2)n1 (some centres unmarked)	0.00
CC(C)Nc1nc([C@H]2c3ccccc3CN2C(=O)[C@H](O)[C@@H](O)C(=O)N[C@H](C)c2ccc(-n3cccn3)cc2)cs1 [drawing 1298]	-0.27
C[C@@H](NC(=O)[C@H](O)[C@@H](O)C(=O)N1CCC[C@@H]1c1ccn(-c2ccc(F)cc2)n1)c1ccc(-n2cccn2)cc1 [drawing 1320]	0.43

----------
Reported Ki values for a set of compounds
- target: purified catalytic domain of recombinant human TACE (rhTACEc) (Homo sapiens, UniProt P78536, N452Q/S266A)
- Construct: Residue 215 to 477 with two mutation (S266A and N452Q) and a 6×His tail; 6xHis (C); made in house; host or cells: baculovirus/Hi5 insect cells
- methodNotes: TACE kinetic assay: cleavage of internally quenched peptide substrate SPDL-3, fluorescence
- Format: biochemical
- experimentalSetup: TACE inhibitory activity, class symbols; read-out: Ki

compound	Ki
C[C@@H](NC(=O)[C@H](O)[C@@H](O)C(=O)N1CCC[C@@H]1c1ccn(-c2cccc(F)c2)n1)c1ccc(-n2cccn2)cc1	< 20 nM
CNc1nc(C2c3ccccc3CN2C(=O)[C@H](O)[C@@H](O)C(=O)N[C@H](C)c2ccc(-n3cccn3)cc2)cs1 (stereo partly shown)	< 20 nM
C[C@@H](NC(=O)[C@](C)(O)[C@@H](O)C(=O)N1Cc2cccnc2C1)c1ccc(-n2cccn2)c(OCC2CC2)c1	100 to 1000 nM
C[C@H](c1ccc(-n2cccn2)cc1)N1CCO[C@H]([C@@H](O)C(=O)N2Cc3ccccc3C2)C1=O	> 1000 nM

----------
- target: purified catalytic domain of recombinant human TACE (rhTACEc) (Homo sapiens, UniProt P78536, N452Q/S266A)
- Construct: Residue 215 to 477 with two mutation (S266A and N452Q) and a 6×His tail; 6xHis (C); made in house; host or cells: baculovirus/Hi5 insect cells
- methodNotes: TACE kinetic assay: cleavage of internally quenched peptide substrate SPDL-3, fluorescence
- Type: biochemical
- experimentalSetup: TACE inhibitory activity, class symbols; read-out: Ki

compound	Ki
CCOc1ncccc1-c1ccc(CNC(=O)[C@H](O)[C@@H](O)C(=O)N2CCCC2)cc1	100 to 1000 nM
C[C@@H](NC(=O)[C@](C)(O)[C@@H](O)C(=O)N1Cc2cncnc2C1(C)C)c1ccc(-n2cccn2)cc1	100 to 1000 nM
C[C@@H](NC(=O)[C@H](O)[C@@H](O)C(=O)N1CC=C[C@H]1c1cccc(Cl)c1)c1ccc(-n2cccn2)cc1	100 to 1000 nM
N#Cc1cc(F)ccc1N1CCC(CNC(=O)[C@H](O)[C@@H](N)C(=O)N2CCCC2)CC1	> 1000 nM
CCOc1cc(F)ccc1-c1ccc(CNC(=O)[C@H](O)[C@@H](O)C(=O)N2Cc3cccnc3C2)cc1	< 20 nM
C[C@@H](NC(=O)[C@H](O)[C@@H](O)C(=O)N1CC=C[C@@H]1c1cccc(Cl)c1)c1ccc(-n2cccn2)cc1	< 20 nM
C[C@@H](NC(=O)[C@H](O)[C@@H](O)C(=O)N1CC2CC1CN2c1ccc(Cl)cc1)c1ccc(-n2cccn2)cc1 (some centres unmarked) [Compound 2099]	100 to 1000 nM
Cn1ccnc1[C@H](O)[C@@](C)(O)C(=O)NCC1CCN(c2ccc(F)cc2C#N)CC1	100 to 1000 nM
C[C@@H](NC(=O)[C@H](O)[C@@H](O)C(=O)N1CCc2cn[nH]c2C1)c1ccc(-n2cccn2)cc1	20 to 100 nM
C[C@@H](NC(=O)[C@H](O)[C@@H](O)C(=O)N1C[C@@H]2C[C@H](C1)c1cccc(=O)n1C2)c1ccc(-n2cccn2)cc1	100 to 1000 nM
Cc1cnc([C@H](O)[C@@H](O)C(=O)NCC2CCN(c3ccc(F)cc3C#N)CC2)n1C	100 to 1000 nM
CC(C)Nc1nc([C@H]2c3ccccc3CCN2C(=O)[C@H](O)[C@@H](O)C(=O)N[C@H](C)c2ccc(-n3cccn3)cc2)cs1	< 20 nM
N#Cc1cc(F)ccc1N1CCC(CNC(=O)[C@H](O)[C@@H](O)C(=O)N2C3CCC2CC3)CC1	> 1000 nM
C[C@@H](NC(=O)[C@H](O)[C@@H](O)C(=O)N1CCc2cc(Cl)c(Cl)cc2C1c1ccccc1)c1ccc(-n2cccn2)cc1 (some centres unmarked)	< 20 nM
